Target: TAOK1 (human) (UniProt Q7L7X3)
Sequence (Q7L7X3 whole entry, looked up): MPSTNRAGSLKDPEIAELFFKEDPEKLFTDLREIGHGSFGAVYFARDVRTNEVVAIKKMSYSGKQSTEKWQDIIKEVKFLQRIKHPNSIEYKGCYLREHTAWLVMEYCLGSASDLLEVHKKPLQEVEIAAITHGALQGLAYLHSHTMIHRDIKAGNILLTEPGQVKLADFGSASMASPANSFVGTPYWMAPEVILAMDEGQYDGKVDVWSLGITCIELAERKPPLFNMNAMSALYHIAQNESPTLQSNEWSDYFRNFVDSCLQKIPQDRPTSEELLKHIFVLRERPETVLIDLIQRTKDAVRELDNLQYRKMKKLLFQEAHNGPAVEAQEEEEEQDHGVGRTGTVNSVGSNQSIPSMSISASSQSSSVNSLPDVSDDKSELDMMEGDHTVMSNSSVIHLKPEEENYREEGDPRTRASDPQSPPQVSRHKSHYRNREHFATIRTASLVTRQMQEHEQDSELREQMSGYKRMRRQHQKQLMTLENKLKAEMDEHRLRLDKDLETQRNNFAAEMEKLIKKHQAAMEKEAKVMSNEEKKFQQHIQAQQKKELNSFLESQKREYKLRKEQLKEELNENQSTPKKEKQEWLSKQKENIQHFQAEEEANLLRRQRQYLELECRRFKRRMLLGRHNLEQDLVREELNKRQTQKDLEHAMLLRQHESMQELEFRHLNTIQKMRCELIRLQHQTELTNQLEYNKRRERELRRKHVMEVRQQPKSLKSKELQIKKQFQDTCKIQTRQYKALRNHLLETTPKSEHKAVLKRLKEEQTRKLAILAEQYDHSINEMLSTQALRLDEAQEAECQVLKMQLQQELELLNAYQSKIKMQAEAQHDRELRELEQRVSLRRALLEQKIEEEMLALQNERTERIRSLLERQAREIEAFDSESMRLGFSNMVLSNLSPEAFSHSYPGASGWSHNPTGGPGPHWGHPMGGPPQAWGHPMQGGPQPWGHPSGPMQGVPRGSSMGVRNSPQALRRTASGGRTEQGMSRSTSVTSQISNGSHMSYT
Experiment: radiometric filter-binding kinase assay
Settings: compound 1.0 µM
endpointName: residual activity (%)

compound=O=C(NCCCNc1nc(Nc2cccc(CN3CCOCC3)c2)ncc1C1CC1)C1CCC1 assayedtarget="TAOK1 (human) (UniProt Q7L7X3)" outputunit=% readoutvalue=71
compound="CNC(=O)C1[C@H]2O[C@@](C)([C@@H]1N)n1c3ccccc3c3c4c(c5c6ccccc6n2c5c31)C(=O)NC4 (some centres undefined)" assayedtarget="TAOK1 (human) (UniProt Q7L7X3)" outputunit=% readoutvalue=7
compound=NC(=O)c1c(NC(=O)C2CC2)sc2c1CCCC2 assayedtarget="TAOK1 (human) (UniProt Q7L7X3)" outputunit=% readoutvalue=87
compound=COc1ccc(-n2ncc3cnc(Nc4cc(OC)c(OC)c(OCCCN5CCN(C)CC5)c4)nc32)cc1 assayedtarget="TAOK1 (human) (UniProt Q7L7X3)" outputunit=% readoutvalue=74
compound=Oc1ccc2ccccc2c1SSc1c(O)ccc2ccccc12 assayedtarget="TAOK1 (human) (UniProt Q7L7X3)" outputunit=% readoutvalue=103
compound=CCCCCc1ccc(/C=C/[C@H](O)[C@@H](CO)NC)cc1 assayedtarget="TAOK1 (human) (UniProt Q7L7X3)" outputunit=% readoutvalue=108
compound="COc1cc(O)c2c(c1)[C@H]1OC1C[C@H](O)[C@H](O)C(=O)/C=C\\C[C@H](C)OC2=O (some centres undefined)" assayedtarget="TAOK1 (human) (UniProt Q7L7X3)" outputunit=% readoutvalue=100

P = COc1cc(C(=O)N2CCOCC2)c(F)cc1Nc1ncc(C(F)(F)F)c(NC2CC2)n1
Q = COc1cc(O)c2c(c1)/C=C/C[C@H](O)[C@H](O)C(=O)/C=C\C[C@H](C)OC2=O
Input line: Would you mind telling me which has the lower recorded residual activity between P and Q ? Pick one and reply with its label.
Output line: Q

Origin of values: the kinase profiling compilation of Christmann-Franck et al. (2016)
